B1: SLC25A39 (parent)
chain: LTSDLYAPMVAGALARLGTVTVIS

Variants of: B1
EXPERIMENT NOTES: protein stability index of a GFP-peptide fusion (GPS, HEK-293T) (PSI 1-6); higher = more stable;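 further: lentivirally expressed fusions sorted by FACS into six bins by GFP to DsRed ratio, PSI derived from sequencing read proportions per bin multiplied by bin number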
ASSAY CONDITIONS: c terminus: a fixed tail appended
Give rule met when the value for protein stability index is at least 2. Give rule not met when it is less.

Below, 3 variants whose answers are already recorded.
MUTATION KEY: L5N
GROUP: rule not met
--
MUTATION KEY: S24K
GROUP: rule not met
--
MUTATION KEY: S3H
GROUP: rule met

## Task For this variant, is measured protein stability index 2 or higher? V10S
## Result rule met

## Task Record T21D ; criterion: protein stability index no lower than 2. Met?
## Result rule met

## Task Decide: is the reported value of protein stability index for L1C equal to or greater than 2?
## Result rule met

## Task Please indicate if the recorded protein stability index for P8A meets or exceeds 2.
## Result rule not met

## Task Check this variant for protein stability index at or above 2: A11L
## Result rule met

## Task Could you tell me if the measured protein stability index of L1M reaches 2 or more?
## Result rule met

## Task Check if protein stability index >= 2 (inclusive). Item: V20E
## Result rule met

## Task Does the variant T2H have recorded protein stability index that is 2 or more?
## Result rule met

## Task For this variant, is measured protein stability index 2 or higher? T2D
## Result rule met
